# TESTED_SYSTEM: MAGI2_6, Q86UL8
# Sequence (Q86UL8 1141-1229): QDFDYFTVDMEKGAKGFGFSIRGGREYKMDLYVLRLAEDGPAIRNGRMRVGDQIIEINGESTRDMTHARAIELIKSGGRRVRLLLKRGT
# METHOD_SUMMARY: holdup assay
# Set-up: key: below the threshold = too weak to quantify, mostly under pKd 3.1 to 4
# STUDY_CONDITIONS: plain residues with an end cap or a label only (N-terminal biotin on a linker: ttds)
Form field: pKd (one value per entry).
Just the number, please.

# BINDER, pKd
rows = [
    ("STLTIFETAL [ABCC4, O15439]", 4.53),
    ("ERKLSSESQV [LRP4, O75096]", 3.51),
    ("IDNDTESTAL [ARHGAP17, Q68EM7]", 3.79),
    ("PKTPPTDTSV [KIR3DL3, Q8N743]", 3.97),
    ("SVWLRKETRV [CYSLTR2, Q9NS75]", 3.51),
]

-- ask So what does the record say about pKd for QSARYRDTEL [TJP2, Q9UDY2] ?
-- reply 4.36

-- ask How about this binder: SSRTRRETQL [HPV16-E6, P03126]
-- reply 3.61

-- ask How about this binder: VLRLQSETSV [VANGL1, Q8TAA9]
-- reply 4.05
